Attribution: paper PMC5564600

// reported remaining activity at 1 µM for each item listed
target: panel of 442 kinases (Homo sapiens); construct: purchased Ambit Biosciences (scanMAXX KINOMEscan); assay: biochemical; assay type: binding; settings: ADCK3; 1 µM; read-out: % of control at 1 µM
Sequence (Q8NI60 163-647): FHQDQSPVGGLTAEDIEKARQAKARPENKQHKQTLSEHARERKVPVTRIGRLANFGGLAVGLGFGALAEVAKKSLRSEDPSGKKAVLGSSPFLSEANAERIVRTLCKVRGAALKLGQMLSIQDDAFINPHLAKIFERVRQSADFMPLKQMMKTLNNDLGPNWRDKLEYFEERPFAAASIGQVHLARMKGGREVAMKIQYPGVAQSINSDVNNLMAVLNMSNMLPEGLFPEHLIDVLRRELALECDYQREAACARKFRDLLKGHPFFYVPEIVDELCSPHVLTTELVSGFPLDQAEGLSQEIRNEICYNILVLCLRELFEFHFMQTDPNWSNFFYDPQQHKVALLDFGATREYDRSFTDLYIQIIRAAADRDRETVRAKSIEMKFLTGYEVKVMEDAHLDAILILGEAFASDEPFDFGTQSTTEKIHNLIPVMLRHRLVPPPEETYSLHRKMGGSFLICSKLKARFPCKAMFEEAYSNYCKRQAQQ
Don't forget the unit after the number, please.

Sample records with remaining activity at 1 µM:
SMI: Nc1cc(C(F)(F)F)c(-c2cc(N3CCOCC3)nc(N3CCOCC3)n2)cn1
OBSERVED VALUE: 100%
--
SMI: Cn1c(=O)n(-c2ccc(C(C)(C)C#N)cc2)c2c3cc(-c4cnc5ccccc5c4)ccc3ncc21
OBSERVED VALUE: 82%
--
SMI: FC(F)c1nc2ccccc2n1-c1nc(N2CCOCC2)nc(N2CCOCC2)n1
OBSERVED VALUE: 82%

Endpoint output: remaining activity at 1 µM of COc1ncc(-c2ccc3nccc(-c4ccnnc4)c3c2)cc1NS(=O)(=O)c1ccc(F)cc1F . Value?
87%
